- assay.name: soluble on expression in E. coli; label from the status in PepcDB or PDB records
recorded.metric: soluble on expression in E. coli

INSERT INTO measurements (sequence_entry, test_result) VALUES
  ('MGSDKIHHHHHHMLPSQRHAFSIPEDVIYLDAAYMSPIPNIATEAGCDGVLVKAAPWDMTINSYYDEVERVRELAASFVGASIDDVGVIPATSYGIAVAAANVHVTPGSVIMMMDNEHTSHRYAWYELAEKKGATVVTVPRRPDQEWGSALAAAIKGSTVPVSVVAGTIVHWFEGMSVDIEVVADAAHAVGAALVMDGTQWVGAVPFDVSRIRPDFLSFATYKFLLGPYRLAFLYADKKWQEAGKPIEFHSWNRKGGERPDFYLETMPDYLPGARRFDMGERSDFAVLPIAIRSLELLQSWGSTAVFERLVHLNELIWKEAEARGFEGPRKDLRAPHISVIELGQRFRPDFARNLKDNKAFVTVRGTKMRITPHVYNEEHDIRRLFELVDSLTR', 'not soluble'),
  ('MKTENAKTNQTLVENSLNTQLSNWFLLYSKLHRFHWYVKGPHFFTLHEKFEELYDHAAETVDTIAERLLAIGGQPVATVKEYTEHASITDGGNETSASEMVQALVNDYKQISSESKFVIGLAEENQDNATADLFVGLIEEVEKQVWMLSSYLG', 'soluble'),
  ('MGSDKIHHHHHHVRLWIPHVTRPTVQPASSYATYSVMPGATVKELADLIGVSTTAVRDHLVHLQAEGMVEVTSERSGPGRPRLVYSLSEKAQKSFPKQYDRLISTLLRELIELEGEGKVEQLLDRVSQRLASEYADRMAGSDVAARLNELRALLEQRGVPAEIDPEGDVLRLFACPYYDVAADYPEVCSMERRMIEYVLGEKLVLEDTIRAGAHNCRFVLRPQDIPLTMTPPAADPTTEV', 'not soluble'),
  ('MGSSHHHHHHGKTIFVIVPTNEEQVAFLEALAKQDELNFDWQNPPTEPGQPVVILIPSDMVEWFLEMLKAKGIPFTVYVEEGGSENLYFQGGGGGGRTGFNTAYSRCTYLVMMGEYKQLLEPGTFPSNDRLPPHLRLDKLSYLDLRDTEIALPPVIDVSLSNRDQVRQLEGQLPSTERSDLHVHFGPIKSQTIIMTPSSNERYVRRRLGLSEKDRKNLEAESQQAFAQARS', 'soluble'),
  ('DFELLHKLGGGNYGDVHLASVKDCNFVCALKRLSIKKLADFDIATQLRREIEIAFNTRHKYLLRTYAYFFDETDIYLIMEPCSNGMLYTELNRVKCFAPPTAARYVAQLAEALLYLHQHHILHRDIKPENILLDHNNNIKLADFGWSVHDPDNRRKTSCGTPEYFPPEIVGRQAYDTSADLWCLGIFCYELLVGKTPFVGKDTDQICKNIHSMHFKIPENIPSEAKDLIANLLLRDGSRRLALHRVVNHQFLLKYYYLPNNL', 'soluble'),
  ('MGSDKIHHHHHHVYQDLSRFSMPADFRGKPGWYVQLWWVVQALLFHPSPQIMYGWRRLLLRAFGAQIGKGVIIRPSAQITYPWKLAIGDYAWIGDEVVLYTLGNITIGKNAVVSQRSYICTGSHDFKKEAFDIFSKPIIIDDECWLATDVFVGPGVKISKGIVIGARSSVYKNIEATPGIYTGNPATRVGDR', 'not soluble');

Data credit: the DeepSol protein solubility set
